Molecular target: UniProt P24387
Assay: activators of CRF receptor 2 with binding protein – uHTS hits, confirmation (AID 602473)
Reported EC50 is given for each of the following molecules.

// below: answered molecules
INSERT INTO assay_data (molecule, result) VALUES
  ('CCc1ccccc1-n1c(O)c2c(c1O)CC(C)=C(C)C2', '> 53 µM'),
  ('Fc1ccc(Br)cc1C1CC(c2ccc(Br)cc2)=Nc2ncnn21 (stereo unspecified)', '> 53 µM'),
  ('CN(C)c1ccc(C(N=O)c2ccccc2)cc1 (stereo unspecified)', '> 53 µM'),
  ('CC1C2=C(CC(C)(C)CC2=O)N=C2CC(C)(C)CC(=O)C21 (stereo unspecified)', '> 53 µM'),
  ('O=NCc1ccc(Oc2ccc(F)cc2)c([N+](=O)[O-])c1', '> 53 µM'),
  ('CC(=O)C1C(=O)C(=O)N(Cc2ccccc2)C1c1ccc(F)cc1 (stereo unspecified)', '> 53 µM');

Notebook: Cc1ccc(C(=O)Cc2nc3ccccc3oc2=O)cc1 , EC50 read as 11.4 µM

Notebook: CCCCN1C(=O)NC(=O)C(C(=O)C=Cc2c[nH]c3ccccc23)C1=O (stereo unspecified) , EC50 read as 6.02 µM

Notebook: O=c1nncc(N=NC=CCc2ccccc2)[nH]1 , EC50 read as > 53 µM

Notebook: N#CC(C(=O)COc1ccc(Cl)cc1)c1nc2ccccc2s1 (stereo unspecified) , EC50 read as > 53 µM

Notebook: Cc1ccc(-n2c(O)c3n(-c4ccccc4)[nH]c(C(=O)c4ccccc4)c-3c2=O)cc1 , EC50 read as 22.2 µM

----------
Biological target: Corticotropin-releasing factor-binding protein (Homo sapiens, UniProt P24387)
Experiment: activators of CRF receptor 2 with binding protein – uHTS hits, confirmation (AID 602473)
Reported EC50 is given for each of the following compounds.

// below: answered compounds
INSERT INTO measurements (compound, target_of_assay, test_readout, result) VALUES
  ('CC1(C)CC(=O)C(C2C3=C(CC(C)(C)CC3=O)Oc3c(Br)cc(Br)cc32)C(=O)C1 (stereo unspecified)', 'Corticotropin-releasing factor-binding protein (Homo sapiens, UniProt P24387)', 'EC50', '10.3 µM'),
  ('CN1C(=O)C(=CCC=Nc2ccccc2)C(=O)N(C)C1=O', 'Corticotropin-releasing factor-binding protein (Homo sapiens, UniProt P24387)', 'EC50', '> 53 µM'),
  ('N#Cc1cc2ccccc2nc1SCc1cccnc1', 'Corticotropin-releasing factor-binding protein (Homo sapiens, UniProt P24387)', 'EC50', '> 53 µM'),
  ('CCOc1ccc(C2C(C(=O)c3ccc4c(c3)OCCO4)C(=O)C(=O)N2CCCN2CCOCC2)cc1 (stereo unspecified)', 'Corticotropin-releasing factor-binding protein (Homo sapiens, UniProt P24387)', 'EC50', '> 53 µM');

Notebook: Oc1csc(=S)n1N=Cc1c(F)cccc1Cl , EC50 read as > 53 µM

Notebook: CCCCCCc1cc2cc(C(=O)NC)c(N)oc-2cc1=O , EC50 read as 3.06 µM

Notebook: CCCC1=Nc2nc(C)nn2C(c2cccnc2)C1C(=O)OCC (stereo unspecified) , EC50 read as > 53 µM

Notebook: COC(=O)Cc1sc(=O)[nH]c1Nc1ccc(OC)cc1 , EC50 read as > 53 µM

Notebook: Cc1ccccc1COc1ccc(C(=O)C2C(=O)C(=O)N(CCCn3ccnc3)C2c2ccco2)cc1 (stereo unspecified) , EC50 read as > 53 µM

Notebook: CCCC(NCC(=O)O)=C1C(=O)CC(C)(C)C(C(=O)OC)C1=O (stereo unspecified) , EC50 read as > 53 µM

Notebook: COc1ccc(C2=Nc3ncnn3C(c3ccco3)C2)cc1 (stereo unspecified) , EC50 read as 4.53 µM

Notebook: CSCSC1=NC(C)=C(C(C)=O)C(c2ccccc2Cl)C1C#N (stereo unspecified) , EC50 read as > 53 µM

Notebook: COc1ccc(C2=Nc3nnnn3C(c3ccc(C)cc3)C2)cc1 (stereo unspecified) , EC50 read as > 53 µM

Notebook: O=NC(N1CCOCC1)P(=O)(N1CCOCC1)N1CCOCC1 (stereo unspecified) , EC50 read as > 53 µM

Notebook: Cc1ccc2nc(N3C(=O)C(=O)C(C(=O)c4ccc(C)o4)C3c3cccc(O)c3)sc2c1 (stereo unspecified) , EC50 read as > 53 µM

Notebook: O=C(O)c1ccc(CN=Nc2cccc(C(F)(F)F)c2)cc1 , EC50 read as > 53 µM

----------
Molecular target: Corticotropin-releasing factor-binding protein (Homo sapiens, UniProt P24387)
Test: activators of CRF receptor 2 with binding protein – uHTS hits, confirmation (AID 602473)
Test readout: EC50

// below: answered compounds
INSERT INTO assay_data (compound, result) VALUES
  ('CCC(C)(C)NC(=O)C(c1ccccc1F)N(Cc1ccco1)C(=O)c1csnn1 (stereo not given)', '15.6 µM'),
  ('Cc1cccc(N2C(=O)C(=O)C(C(=O)c3cccs3)C2c2ccc(C(C)C)cc2)n1 (stereo not given)', '11.3 µM'),
  ('COc1ccc(-n2c(O)cc(-c3ccc([N+](=O)[O-])cc3)c2O)cc1', '> 53 µM'),
  ('Cc1ccc2nc(N3C(=O)C(=O)C(C(=O)c4ccco4)C3c3cccc(O)c3)sc2c1 (stereo not given)', '> 53 µM'),
  ('COc1ccc(C2=c3cc(F)ccc3=NC(c3ccco3)=NN2)cc1', '> 53 µM'),
  ('CN(CCOc1ccc(Cc2sc(=O)[nH]c2O)cc1)c1ccccn1', '> 53 µM'),
  ('CC1(C)CC(=O)C2CNc3ccccc3N=C2C1 (stereo not given)', '> 53 µM'),
  ('CC1=NC(=O)NC(c2cccc3ccccc23)C1C(=O)OC(C)(C)C (stereo not given)', '> 53 µM');

Notebook: CCOc1ccc(C2C(C#N)=C3Sc4ccccc4N3C(=N)C2C#N)cc1 (stereo not given) , EC50 read as 8.06 µM

Notebook: Oc1nc(N=NCc2ccc(F)cc2)sc1-c1ccccc1 , EC50 read as > 53 µM

----------
Biological target: Corticotropin-releasing factor-binding protein (Homo sapiens, UniProt P24387)
Sequence (P24387 whole entry): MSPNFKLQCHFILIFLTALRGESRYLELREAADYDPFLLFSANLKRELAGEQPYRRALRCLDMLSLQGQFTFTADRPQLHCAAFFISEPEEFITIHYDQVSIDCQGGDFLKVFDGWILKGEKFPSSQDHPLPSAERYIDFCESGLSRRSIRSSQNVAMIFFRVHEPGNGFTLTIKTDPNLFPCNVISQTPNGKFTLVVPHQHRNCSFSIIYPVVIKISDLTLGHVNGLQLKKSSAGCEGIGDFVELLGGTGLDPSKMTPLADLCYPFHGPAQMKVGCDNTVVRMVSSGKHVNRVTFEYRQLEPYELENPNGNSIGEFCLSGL
Experiment: activators of CRF receptor 2 with binding protein – uHTS hits, confirmation (AID 602473)
pEC50: −log10 of the molar value.
Test readout: pEC50

INSERT INTO measurements (molecule, test_readout, result) VALUES
  ('COc1ccc(C(=O)Cc2nc3ccccc3n(-c3ccccc3)c2=O)cc1', 'pEC50', 5.11);

Notebook: Cc1nn(-c2ccccc2)c(N2CCCC2)c1CN=Nc1ccc(S(N)(=O)=O)cc1[N+](=O)[O-] , pEC50 read as < 4.28

Notebook: CCCCCCC1=Cc2c/c(=C(/N)NNC(=O)c3ccncc3)c(=O)oc2=CC1=O , pEC50 read as 5.95

----------
Target: Corticotropin-releasing factor-binding protein (Homo sapiens)
Sequence (P24387 whole entry): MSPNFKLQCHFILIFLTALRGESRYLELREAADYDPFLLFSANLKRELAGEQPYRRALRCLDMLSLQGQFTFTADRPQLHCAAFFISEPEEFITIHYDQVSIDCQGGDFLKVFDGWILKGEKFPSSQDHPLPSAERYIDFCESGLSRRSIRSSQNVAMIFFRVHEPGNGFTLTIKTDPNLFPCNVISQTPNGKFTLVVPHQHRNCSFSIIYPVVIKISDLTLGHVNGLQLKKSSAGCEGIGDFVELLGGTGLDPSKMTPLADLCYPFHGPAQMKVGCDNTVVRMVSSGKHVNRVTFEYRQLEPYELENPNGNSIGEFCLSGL
Assay: activators of CRF receptor 2 with binding protein – uHTS hits, confirmation (AID 602473)
Test readout: EC50

INSERT INTO measurements (compound, test_readout, result) VALUES
  ('Cn1c(O)c(N=Nc2ccc([N+](=O)[O-])cc2)sc1=S', 'EC50', '1.69 µM'),
  ('CC1=CC(C)(C(Cl)(Cl)Cl)C(C)C=C1N=O (stereo not drawn)', 'EC50', '> 53 µM'),
  ('Cc1cc2c(cc1C)NC(c1c(C)n(C)n(-c3ccccc3)c1=O)C1C(=O)CC(C)(C)CC1=N2 (stereo not drawn)', 'EC50', '> 53 µM'),
  ('O=C(Cc1sc(N=NC=CCc2ccccc2)nc1O)Nc1ccc(Cl)c(Cl)c1', 'EC50', '> 53 µM');

Notebook: C=CCOc1ccc(C2C(C(=O)c3ccco3)C(=O)C(=O)N2c2nnc(C)s2)cc1 (stereo not drawn) , EC50 read as > 53 µM

Notebook: CN(C)c1ccc(C=Nn2c(O)csc2=S)c(Cl)c1 , EC50 read as > 53 µM

Notebook: O=CC(C=Nc1ccccn1)c1nc2cc(Cl)ccc2o1 (stereo not drawn) , EC50 read as > 53 µM

Notebook: CCOC(=O)C1CCCN(c2cc(O)n(-c3ccccc3)c2O)C1 (stereo not drawn) , EC50 read as > 53 µM

Notebook: O=c1cc(Nc2cc(O)n(-c3ccccc3Cl)c2O)[nH]c(=O)[nH]1 , EC50 read as > 53 µM

Notebook: COc1ccc(C2c3c(n(C)c(=O)n(C)c3=O)N=C3CC(C)(C)CC(=O)C32)cc1OC (stereo not drawn) , EC50 read as > 53 µM

Notebook: COc1ccc(/C=N/OCC(=O)NNC2=c3cc(Br)ccc3=NC2=O)cc1 , EC50 read as > 53 µM

Notebook: COc1ccccc1NS(=O)(=O)c1ccc(N=NCc2c(C)nn(-c3ccccc3)c2N2CCCC2)c([N+](=O)[O-])c1 , EC50 read as > 53 µM

meta.source: BindingDB's records for doi:10.7270/Q2VX0F3D
